FYI, the data here is from patent US10590086B2.

- target: IDO (Homo sapiens)
- Sequence (P14902 whole entry): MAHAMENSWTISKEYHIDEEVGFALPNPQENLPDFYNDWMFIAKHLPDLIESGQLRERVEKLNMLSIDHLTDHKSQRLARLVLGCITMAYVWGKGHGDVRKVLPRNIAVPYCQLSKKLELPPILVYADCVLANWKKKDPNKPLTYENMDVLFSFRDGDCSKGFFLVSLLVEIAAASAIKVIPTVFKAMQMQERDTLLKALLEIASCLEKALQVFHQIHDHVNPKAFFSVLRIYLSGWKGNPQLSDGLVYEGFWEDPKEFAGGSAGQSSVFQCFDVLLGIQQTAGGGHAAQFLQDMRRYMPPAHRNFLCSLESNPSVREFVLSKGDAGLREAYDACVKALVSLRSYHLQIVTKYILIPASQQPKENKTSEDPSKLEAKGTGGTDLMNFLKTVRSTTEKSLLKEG
- assay.name: hIDO biochemical coupled assay
- condition.label: 45 μM L-tryptophan, 17 minutes, room temperature; read-out: hIDO biochemical assay pIC50 (converted)
measured.property: IC50

Task: Provide one value: measured IC50 of Cn1ncc2c1CCN(c1cc(Cl)cc3[nH]ncc13)C2 [Compound 369]
Output: 3.24 to 31.6 µM

Task: Please list IC50 recorded for the compound CCS(=O)(=O)N1CCC(c2cc(Cl)cc3[nH]ncc23)CC1 [Compound 423]
Output: < 3.16 µM

Task: # return recorded IC50 for entry c1ccc(Nc2cccc3[nH]ncc23)cc1 [Compound 36]
Output: > 100 µM

Task: Give me measured IC50, please, for this compound: Clc1cc(N2CC=CCC2)c2cn[nH]c2c1 [Compound 345]
Output: 3.24 to 31.6 µM

Task: Provide measured IC50 value, entry: COc1cc(S(C)(=O)=O)ccc1-c1cc(Cl)cc2[nH]ncc12 [Compound 266]
Output: > 100 µM

Task: Please report the measured IC50 for CC(C)N1C(=O)NC2(CCN(c3cc(Cl)cc4[nH]ncc34)CC2)C1=O [Compound 316]
Output: 3.24 to 31.6 µM

Task: Please look at this compound and report its IC50: O=C1NC(=O)C(C2CCN(c3cc(Cl)cc4[nH]ncc34)CC2)N1 (centres unmarked) [Compound 443]
Output: > 100 µM

Task: Supply reported IC50 belonging to this compound: Clc1cc(N2CCN(c3nccs3)CC2)c2cn[nH]c2c1 [Compound 365]
Output: > 100 µM

Task: Using known records, supply IC50 for OC(CC1CCOCC1)c1cc(Cl)cc2[nH]ncc12 (centres unmarked) [Compound 289]
Output: 32.4 to 100 µM

Task: Respond only with IC50 recorded for O=C1CCCC2(CCN(c3cc(Cl)cc4[nH]ncc34)CC2)N1 [Compound 216]
Output: > 100 µM

Task: Supply measured IC50 of CC(=O)NCC1CCCN(c2cc(Cl)cc3[nH]ncc23)C1 (centres unmarked) [Compound 283] in your reply.
Output: > 100 µM

Task: Supply reported IC50 belonging to this compound: CC(=O)N1CCN(c2cccc3cnn(C)c23)CC1 [Compound 38]
Output: 32.4 to 100 µM

Task: Look up and report measured IC50 for this entry: O=C1NC2(CCO1)CCN(c1cc(Cl)cc3[nH]ncc13)CC2 [Compound 224]
Output: 32.4 to 100 µM

Task: Specify reported IC50 for the compound shown: O=S(=O)(C1CCCC1)N1CCN(c2cccc3[nH]ncc23)CC1 [Compound 17]
Output: > 100 µM

Task: Given the compound CS(=O)(=O)NC1CCCN(c2cc(Cl)cc3[nH]ncc23)C1 (centres unmarked) [Compound 229] , write its reported IC50.
Output: > 100 µM

Task: Find the measured IC50 of CC(C)CC(O)c1cc(Cl)cc2[nH]ncc12 (centres unmarked) [Compound 272] and report it.
Output: 32.4 to 100 µM

Task: State its IC50 for this compound: CC1(C)CN(c2cc(Cl)cc3[nH]ncc23)CCC12NC(=O)NC2=O (centres unmarked) [Compound 424]
Output: < 3.16 µM

Task: Output IC50 of CN1CCN(C2CCN(c3cc(Cl)cc4[nH]ncc34)CC2)C1=O [Compound 411]
Output: > 100 µM

Task: Please give measured IC50 of the following entry: CN(C)C(=O)C1CCN(c2cc(Cl)cc3[nH]ncc23)CC1 [Compound 225]
Output: 3.24 to 31.6 µM

Task: Kindly indicate its recorded IC50. Item: O=C1NC2(CCN(c3cc(Cl)cc4[nH]ncc34)CC2)C(=O)N1CC(F)(F)F [Compound 405]
Output: < 3.16 µM

Task: Name the recorded IC50 of the item CC(C)CN1C(=O)NC2(CCN(c3cc(Cl)cc4[nH]ncc34)CC2)C1=O [Compound 388] in your answer.
Output: < 3.16 µM

Task: Hello, please tell me recorded IC50 for this one: Clc1cc(N2CCC(N3CCOCC3)CC2)c2cn[nH]c2c1 [Compound 451]
Output: 32.4 to 100 µM

Task: For CS(=O)(=O)N1CCN(c2cc(Cl)cc3[nH]ncc23)C2CCCCC21 (racemic) [Compound 341] , write its IC50.
Output: > 100 µM

Task: Return value of IC50 for input CS(=O)(=O)NC1CN(c2cc(Cl)cc3[nH]ncc23)C1 [Compound 431] , no commentary.
Output: < 3.16 µM

Task: Tell us which IC50 value is on record for O=C1NC2(CCN(c3cc(Br)cc4[nH]ncc34)CC2)C(=O)N1Cc1ccccc1 [Compound 406]
Output: < 3.16 µM

Task: Provide only the value of recorded IC50 for COC(C)c1cc(Cl)cc2[nH]ncc12 (centres unmarked) [Compound 287]
Output: > 100 µM

Task: Kindly indicate its recorded IC50. Item: CC(=O)NCCN1C(=O)NC2(CCN(c3cc(Cl)cc4[nH]ncc34)CC2)C1=O [Compound 412]
Output: < 3.16 µM

Task: Please give measured IC50 of the following entry: O=C1NC2(CCN(c3cc(Cl)cc4[nH]ncc34)CC2)C(=O)N1c1ccccc1 [Compound 456]
Output: < 3.16 µM

Task: Write down IC50 measured for item NS(=O)(=O)N1CC2(CCN(c3cc(Cl)cc4[nH]ncc34)CC2)C1 [Compound 367]
Output: 3.24 to 31.6 µM

Task: Using the record for CN1CC2(CCN(c3cc(Cl)cc4[nH]ncc34)CC2)CC1=O [Compound 291] , state its measured IC50.
Output: > 100 µM

Task: # return recorded IC50 for entry CC1(C)CN(c2cc(C(F)F)cc3[nH]ncc23)CCN1S(C)(=O)=O [Compound 370]
Output: < 3.16 µM

Task: Supply recorded IC50 for CC(=O)NC1CCN(c2cc(Cl)cc3[nH]ncc23)C1 (centres unmarked) [Compound 198] here.
Output: 3.24 to 31.6 µM

Task: Provide measured IC50 value, entry: NS(=O)(=O)N1CCC2(CCN(c3cc(Cl)cc4[nH]ncc34)CC2)CC1 [Compound 363]
Output: 32.4 to 100 µM

Task: Look up IC50 of CC(=O)NC1CCN(c2cc(Cl)cc3[nH]ncc23)CC1 [Compound 250] and report it.
Output: 32.4 to 100 µM

Task: Tell us which IC50 value is on record for CN(C)C(=O)CC1CCN(c2cc(Cl)cc3[nH]ncc23)CC1 [Compound 362]
Output: > 100 µM

Task: Identify IC50 associated with the compound CC(C)COc1cccc2[nH]ncc12 [Compound 262]
Output: > 100 µM

Task: Return value of IC50 for input Cc1c2c(nn1C)CCN(c1cc(Cl)cc3[nH]ncc13)C2 [Compound 378] , no commentary.
Output: > 100 µM

Task: Assign IC50 to the following record: O=c1[nH]c2ccccc2n1C1CCN(c2cc(Cl)cc3[nH]ncc23)CC1 [Compound 354]
Output: > 100 µM
